// reported melting point per item

# annotated cases, reported melting point shown
- cpd-smiles: "CNC(=O)c1cccc(-c2ccn3nc(-c4cccc(F)c4F)cc3c2)c1"
  experimental-value: "214 to 216 °C"
- cpd-smiles: "CNC(=O)c1cccc(-c2ccn3nc(-c4ccc(C(F)(F)F)cc4)cc3c2)c1"
  experimental-value: "220 to 222 °C"

Note: attention shifts to another entry.
Query block: Request the reported melting point associated with CNC(=O)c1ccc(Cl)c(-c2ccn3nc(-c4ccc(F)cc4)cc3c2)c1
Result block: 188 to 190 °C

====

// reported melting point per item

- compound: "CNC(=O)c1cccc(-c2ccn3nc(-c4ccc(F)cc4F)cc3c2)c1 [Compound 23]"
  melting point: "210 to 212 °C"
- compound: "CNC(=O)c1ccc(-c2ccn3nc(-c4ccc(F)cc4)cc3c2)cc1F [Compound 14]"
  melting point: "227 to 229 °C"

Query block: Request the reported melting point associated with CNC(=O)c1cccc(-c2ccn3nc(-c4ccc(F)cc4)cc3c2)c1 [Compound 6]
Result block: 214 to 216 °C

====

// reported melting point per item

- cpd-smiles: "CC(C)NC(=O)c1cccc(-c2ccn3nc(-c4ccc(F)cc4)cc3c2)c1"
  experimental-value: "210 to 212 °C"
- cpd-smiles: "O=C(NC1CC1)c1cccc(-c2ccn3nc(-c4ccc(F)cc4)cc3c2)c1"
  experimental-value: "179 to 181 °C"
- cpd-smiles: "CN(C)C(=O)c1cccc(-c2ccn3nc(-c4ccc(Cl)cc4)cc3c2)c1"
  experimental-value: "175 to 177 °C"

Query block: Request the reported melting point associated with COC(=O)c1cccc(-c2ccn3nc(-c4ccc(Cl)cc4)cc3c2)c1
Result block: 180 to 182 °C

Query block: Try the compound O=C(c1cccc(-c2ccn3nc(-c4ccc(F)cc4)cc3c2)c1)N1CCCC1
Result block: 164 to 166 °C
